- Format: in vivo, human
- COND: human, plasma, po, 100 mg
RESULT_TYPE: Cmax
Don't forget the unit after the value.

*Q* Give its Cmax value. Item: NS(=O)(=O)c1cc(Cl)c(Cl)c(S(N)(=O)=O)c1 [dichlorphenamide]
*A* 1510 ng/mL

* * *

- EXPERIMENT_DESCRIPTION: Multiple‐dose
- Type: in vivo, human
- COND: human, plasma, oral, 25 mg
RESULT_TYPE: Cmax (µg/mL)
Please reply with the bare figure in µg/mL and do not write the unit itself.

*Q* Give its Cmax value. Item: NS(=O)(=O)c1cc(Cl)c(Cl)c(S(N)(=O)=O)c1 [dichlorphenamide]
*A* 1.15

* * *

- Format: in vivo, human
- COND: human, plasma, oral, Median Tmax, range across doses, single doses 25–400 mg
RESULT_TYPE: Tmax

*Q* Give its Tmax value. Item: NS(=O)(=O)c1cc(Cl)c(Cl)c(S(N)(=O)=O)c1 [dichlorphenamide]
*A* 1.5 to 3 h

* * *

- EXPERIMENT_DESCRIPTION: Multiple‐dose
- Format: in vivo, human
- COND: human, plasma, oral, 400 mg
RESULT_TYPE: Cmax (ng/mL)
Please reply with the bare figure in ng/mL and do not write the unit itself.

*Q* Give its Cmax value. Item: NS(=O)(=O)c1cc(Cl)c(Cl)c(S(N)(=O)=O)c1 [dichlorphenamide]
*A* 26600

* * *

- Format: in vivo, human
- COND: human, plasma, po, 200 mg
RESULT_TYPE: Cmax
Don't forget the unit after the value.

*Q* Give its Cmax value. Item: NS(=O)(=O)c1cc(Cl)c(Cl)c(S(N)(=O)=O)c1 [dichlorphenamide]
*A* 3030 ng/mL

* * *

- Type: in vivo, human
- COND: human, plasma, po, 400 mg
RESULT_TYPE: half-life (h)
Please reply with the bare figure in h and do not write the unit itself.

*Q* Give its half-life value. Item: NS(=O)(=O)c1cc(Cl)c(Cl)c(S(N)(=O)=O)c1 [dichlorphenamide]
*A* 38.6

* * *

- Assay type: in vivo, human
- COND: human, plasma, oral
RESULT_TYPE: half-life

*Q* Give its half-life value. Item: NS(=O)(=O)c1cc(Cl)c(Cl)c(S(N)(=O)=O)c1 [dichlorphenamide]
*A* 1920 to 4080 min

* * *

- EXPERIMENT_DESCRIPTION: Multiple‐dose
- Type: in vivo, human
- COND: human, plasma, oral, 200 mg
RESULT_TYPE: Cmax (ng/mL)
Please reply with the bare figure in ng/mL and do not write the unit itself.

*Q* Give its Cmax value. Item: NS(=O)(=O)c1cc(Cl)c(Cl)c(S(N)(=O)=O)c1 [dichlorphenamide]
*A* 10700
